The values you see were collected from PubChem BioAssay AID1963830.

Tested on: 922993-354-T-J3-PDC complex spheroid viability
protocol-text: Anticancer human tumor 922993-354-T-J3-PDC patient-derived endometrial carcinoma cell line growth inhibition [POLQ]
experimental-setup: second compound 0.1 µM; first compound 10 µM; stronger effect = lower value
viability, T/C listing for selected compounds.

>  <compound>
C=CC(=O)N1CCN(c2nc(=O)n(-c3c(C)ccnc3C(C)C)c3nc(-c4c(O)cccc4F)c(F)cc23)C(C)C1 (stereo not given) + Nc1ccc(C#CCN(C(=O)Cc2ncc(C(F)(F)F)cc2C(F)(F)F)c2ccc(F)cc2)nn1

>  <experimental-system>
922993-354-T-J3-PDC complex spheroid viability

>  <units-of-measure>
%

>  <viability, T/C>
104

$$$$
>  <compound>
CC1COCCN1c1cc(C2(O)CC3CCC(C2)O3)c2cnn(-c3ccn[nH]3)c2n1 (stereo not given) + Nc1ccc(C#CCN(C(=O)Cc2ncc(C(F)(F)F)cc2C(F)(F)F)c2ccc(F)cc2)nn1

>  <experimental-system>
922993-354-T-J3-PDC complex spheroid viability

>  <units-of-measure>
%

>  <viability, T/C>
16.2

$$$$
>  <compound>
COc1cc(C2c3cc4c(cc3C(OC3OC5COC(C)OC5C(O)C3O)C3COC(=O)C23)OCO4)cc(OC)c1O (stereo not given) + COC1C(OC(N)=O)C(O)C(Oc2ccc3c(O)c(NC(=O)c4ccc(O)c(CC=C(C)C)c4)c(=O)oc3c2C)OC1(C)C

>  <experimental-system>
922993-354-T-J3-PDC complex spheroid viability

>  <units-of-measure>
%

>  <viability, T/C>
43.2

$$$$
>  <compound>
CC1COCCN1c1cc(-c2ccnn2C)c2ccnc(-c3ccn[nH]3)c2n1 (stereo not given) + Cc1cccc(N(C)C(=O)C2C(O)CCN2c2nc(C)cc(C(F)(F)F)c2C#N)c1

>  <experimental-system>
922993-354-T-J3-PDC complex spheroid viability

>  <units-of-measure>
%

>  <viability, T/C>
10.4

$$$$
>  <compound>
COc1cccc2c1C(=O)c1c(O)c3c(c(O)c1C2=O)CC(O)(C(=O)CO)CC3OC1CC(N)C(O)C(C)O1 (stereo not given) + Nc1ccc(C#CCN(C(=O)Cc2ncc(C(F)(F)F)cc2C(F)(F)F)c2ccc(F)cc2)nn1

>  <experimental-system>
922993-354-T-J3-PDC complex spheroid viability

>  <units-of-measure>
%

>  <viability, T/C>
24.9

$$$$

* * *

Tested on: 922993-354-T-J3-PDC complex spheroid viability
protocol-text: Anticancer human tumor 922993-354-T-J3-PDC cell line growth inhibition [POLQ];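 note: spheroids exposed to the agents for one week; 100% = DMSO vehicle control wells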
experimental-setup: second compound 10 µM; first compound 10 µM; stronger effect = lower value

>  <compound>
COc1cccc2c1C(=O)c1c(O)c3c(c(O)c1C2=O)CC(O)(C(=O)CO)CC3OC1CC(N)C(O)C(C)O1 (stereo not drawn) + Nc1ccc(C#CCN(C(=O)Cc2ncc(C(F)(F)F)cc2C(F)(F)F)c2ccc(F)cc2)nn1

>  <experimental-system>
922993-354-T-J3-PDC complex spheroid viability

>  <viability, T/C / %>
14.8

$$$$
>  <compound>
CC1COCCN1c1cc(-c2ccnn2C)c2ccnc(-c3ccn[nH]3)c2n1 (stereo not drawn) + Nc1ccc(C#CCN(C(=O)Cc2ncc(C(F)(F)F)cc2C(F)(F)F)c2ccc(F)cc2)nn1

>  <experimental-system>
922993-354-T-J3-PDC complex spheroid viability

>  <viability, T/C / %>
13.2

$$$$
>  <compound>
COc1cc2cc(C(=O)CCC(=O)O)sc2cc1OC + Cc1cccc(N(C)C(=O)C2C(O)CCN2c2nc(C)cc(C(F)(F)F)c2C#N)c1

>  <experimental-system>
922993-354-T-J3-PDC complex spheroid viability

>  <viability, T/C / %>
93.7

$$$$
